Target: human TLR9 (Homo sapiens, UniProt Q9NR96)
Sequence (Q9NR96 26-1032): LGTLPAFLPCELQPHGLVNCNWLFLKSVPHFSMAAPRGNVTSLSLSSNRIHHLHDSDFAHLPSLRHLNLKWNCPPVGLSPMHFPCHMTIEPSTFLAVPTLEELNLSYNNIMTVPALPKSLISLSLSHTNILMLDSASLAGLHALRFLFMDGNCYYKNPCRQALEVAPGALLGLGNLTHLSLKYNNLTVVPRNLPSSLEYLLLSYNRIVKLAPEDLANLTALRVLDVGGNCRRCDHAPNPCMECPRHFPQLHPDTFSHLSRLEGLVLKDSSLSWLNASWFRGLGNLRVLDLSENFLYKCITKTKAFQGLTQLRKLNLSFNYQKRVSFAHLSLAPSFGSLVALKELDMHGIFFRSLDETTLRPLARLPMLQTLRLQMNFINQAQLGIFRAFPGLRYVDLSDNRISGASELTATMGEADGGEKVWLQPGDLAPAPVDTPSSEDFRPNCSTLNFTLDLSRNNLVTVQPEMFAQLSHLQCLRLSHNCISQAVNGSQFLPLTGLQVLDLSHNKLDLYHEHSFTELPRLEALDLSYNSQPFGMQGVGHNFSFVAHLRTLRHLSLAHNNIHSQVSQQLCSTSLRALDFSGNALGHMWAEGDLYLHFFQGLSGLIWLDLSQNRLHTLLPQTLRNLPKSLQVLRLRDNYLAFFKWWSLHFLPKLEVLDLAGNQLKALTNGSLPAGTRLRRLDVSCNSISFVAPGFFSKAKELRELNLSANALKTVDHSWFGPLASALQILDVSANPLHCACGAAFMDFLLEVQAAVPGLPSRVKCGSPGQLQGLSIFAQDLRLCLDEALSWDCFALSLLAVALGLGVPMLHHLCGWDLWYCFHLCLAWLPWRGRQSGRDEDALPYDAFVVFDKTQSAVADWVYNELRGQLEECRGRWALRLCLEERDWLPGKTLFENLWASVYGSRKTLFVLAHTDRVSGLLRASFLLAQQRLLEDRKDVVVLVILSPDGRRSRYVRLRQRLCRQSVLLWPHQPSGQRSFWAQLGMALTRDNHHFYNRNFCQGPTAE
Test: HEK293-Blue-hTLR-9 cells assay
Details: HEK293-Blue-hTLR9 cells, ODN2006 stimulation, 20 hrs, SEAP reporter; read-out: HEK/hTLR9 IC50
observation.type: pIC50
Value format note: pIC50 is -log10 of concentration (mol/L); just state the number.

Example cases with answers are listed next.
[2H]c1ccc2c(N3C[C@@H]4CN(c5ccc(CCN6C[C@H](OC)[C@@H](N)C6)cn5)CCN4[C@@H](C)C3)ccc(C#N)c2n1 [Example 122]    7.29
[2H]c1ccc2c(N3C[C@@H]4CN(Cc5ccc6c(c5)CNCC6)CCN4[C@H](C)C3)ccc(C#N)c2n1 [Example 61]    7.19
CO[C@H]1CN(c2ccc(CCN3CCN4[C@@H](C3)CN(c3ccc(C#N)c5ncccc35)C[C@H]4C)cn2)C[C@H]1N [Example 24]    7.35
Cc1nc(N2CCNCC2)ccc1CN1CCN2[C@@H](C1)CN(c1ccc(C#N)c3ncccc13)C[C@H]2C [Example 60]    7.28
C[C@@H]1CN(c2ccc(C#N)c3ncccc23)C[C@@H]2CN(CCc3ccc(N4CC5(CNCCO5)C4)nc3)CCN21 [Example 59]    7.32
C[C@@H]1CN(c2ccc(C#N)c3ncccc23)C[C@@H]2CN(CCc3ccc(N4CCNCC4)nc3)CCN21 [Example 11]    7.43
C[C@@H]1CN(c2ccc(C#N)c3ncccc23)C[C@@H]2CN(CCc3ccc(N4CCN[C@@H](C)C4)cn3)CCN21 [Example 20]    7.25
Cc1cc(N2CCN3[C@@H](C2)CN(c2ccc(C#N)c4ncccc24)C[C@H]3C)nc(N2CC(C)(N)C2)n1 [Example 55]    7.32

# next compound below
Input line: Field request: pIC50 | item: [2H]c1ccc2c(N3C[C@@H]4CN(c5ncc(N6CC7CC(C6)N7)cc5C)CCN4[C@@H](C)C3)ccc(C#N)c2n1 [Example 108]
Output line: 7.01
